Tested on: MOLT-4
Assay Method Text: NCI tumour cell line growth inhibition, 48 h
Activity calls are given as the source filed them. Cut-off read from the data, not from the text of the source: active = GI50 up to about 1.1 µM and inactive = higher.
Entry note: the call must match one of yes (1) for active, no (0) for inactive

Fill in: this test's call for C=[N+](CNC(=O)CNC(=O)C(Cc1ccc([N+](=O)[O-])cc1)NC(=O)OC(C)(C)C)C(=O)CNC(=O)C(Cc1ccc([N+](=O)[O-])cc1)NC(=O)OC(C)(C)C (configuration not stated) is ___
no (0)

Fill in: this test's call for O=C1OC2(CC1C1(O)C3CC4CC(C3)CC1C4)C1CC3CC(C1)CC2C3 (configuration not stated) is ___
no (0)

Fill in: this test's call for Cc1cc2c(=O)cc(-c3ccc(Cl)cc3Cl)oc2c(C(=O)O)c1C is ___
no (0)

Fill in: this test's call for O=C1C(CN2CCCC2)CCC1CN1CCCC1 (configuration not stated) is ___
no (0)

Fill in: this test's call for COC(=O)C1Cc2c(n(Cc3ccccc3)c3ccccc23)C(CCC(=O)O)N1C(C)C (configuration not stated) is ___
no (0)

Then this compound:
Fill in: this test's call for COC(=O)[C@@H]1C=CCN1S(=O)(=O)c1ccc(C)cc1 is ___
no (0)

* * *

Task for the reader: assign each of the following molecules its reported GI50.
Tested on: DLD-1
Assay Method Text: NCI tumour cell line growth inhibition, 48 h
Calls of active or inactive are those of the source. Cut-off read from the data, not from the text of the source: active = GI50 up to about 1.1 µM and inactive = higher.

Examples from the recorded data:
Dear colleague, I am looking for the recorded GI50 of the following molecule: Cc1ccc2[nH]c3c(C)c4ccncc4c(C)c3c2c1
0.333 µM (active)

Dear colleague, I am looking for the recorded GI50 of the following molecule: COc1cc2nc(Sc3c([N+](=O)[O-])ncn3C)[nH]c2cc1OC
14 µM (inactive)

Dear colleague, I am looking for the recorded GI50 of the following molecule: O=c1c2ccccc2nc(-c2ccccc2)n1NCC1(O)OCC(O)C(O)C1O (stereo not drawn)
> 100 µM (inactive)

Dear colleague, I am looking for the recorded GI50 of the following molecule: Cc1ccc(S(=O)(=O)N2CCCCC2CCO)cc1 (stereo not drawn)
> 100 µM (inactive)

Dear colleague, I am looking for the recorded GI50 of the following molecule: C1CCC(N=C2N(C3CCCCC3)C(=NC3CCCCC3)N2C2CCCCC2)CC1
> 100 µM (inactive)

Dear colleague, I am looking for the recorded GI50 of the following molecule: O=C(Nc1cccc(Cl)c1)C(=O)C(C(=O)c1ccc2ccccc2c1)C1OC(=O)c2ccccc21 (stereo not drawn)
16.3 µM (inactive)

Dear colleague, I am looking for the recorded GI50 of the following molecule: COC(=O)C12C3C4C1C1C2C3C41I (stereo not drawn)
> 100 µM (inactive)

Kindly review the next molecule as well.
Dear colleague, I am looking for the recorded GI50 of the following molecule: CCOC(=O)C1=C(Nc2ccccc2)SCC1=O
> 100 µM (inactive)

* * *

System: SNB-19
Assay Method Text: NCI tumour cell line growth inhibition, 48 h
Active and inactive are the calls of the source. Rule as the data show it: active = GI50 up to about 1.1 µM and inactive = higher.
Measured Parameter: GI50

Examples from the recorded data:
Dear colleague, I am looking for the recorded GI50 of the following molecule: COC(=O)/C(=N/NC(N)=O)C(C(=O)OC)C(=O)C(=O)Nc1ccc(Cl)cc1 (stereo not given)
> 100 µM (inactive)

Dear colleague, I am looking for the recorded GI50 of the following molecule: CCOC(=O)C(Cl)(NC(=O)c1ccc(F)cc1)C(F)(F)F (stereo not given)
> 100 µM (inactive)

Dear colleague, I am looking for the recorded GI50 of the following molecule: O=C(NC(=O)c1cn(CCN2CCN(C(=O)NCCCCCCNC(=O)N3CCN(CCn4cc(C(=O)NC(=O)OCc5ccccc5)c(=O)[nH]c4=O)CC3)CC2)c(=O)[nH]c1=O)OCc1ccccc1
> 100 µM (inactive)

Okay, here is my list. What is GI50 for each of these?
1. CCOC(=O)C(CCN1CCC2(CC1)C(=O)N(C)CN2c1ccccc1)C(=O)OCC
2. COc1ccc2[nH]c3c(c2c1)CC(=S)N1CCCC(CC3=O)C1 (stereo not given)
3. Cc1c2cc[n+](COC(=O)c3ccccc3)cc2c(C)c2c1[nH]c1ccccc12

1. > 100 µM (inactive)
2. 35.6 µM (inactive)
3. 0.778 µM (active)

The values you see were collected from ChEMBL document CHEMBL1201862.
